# subject.of.test: CCKA receptor (rat pancreas) (Rattus norvegicus)
# Sequence (P30551 1-444): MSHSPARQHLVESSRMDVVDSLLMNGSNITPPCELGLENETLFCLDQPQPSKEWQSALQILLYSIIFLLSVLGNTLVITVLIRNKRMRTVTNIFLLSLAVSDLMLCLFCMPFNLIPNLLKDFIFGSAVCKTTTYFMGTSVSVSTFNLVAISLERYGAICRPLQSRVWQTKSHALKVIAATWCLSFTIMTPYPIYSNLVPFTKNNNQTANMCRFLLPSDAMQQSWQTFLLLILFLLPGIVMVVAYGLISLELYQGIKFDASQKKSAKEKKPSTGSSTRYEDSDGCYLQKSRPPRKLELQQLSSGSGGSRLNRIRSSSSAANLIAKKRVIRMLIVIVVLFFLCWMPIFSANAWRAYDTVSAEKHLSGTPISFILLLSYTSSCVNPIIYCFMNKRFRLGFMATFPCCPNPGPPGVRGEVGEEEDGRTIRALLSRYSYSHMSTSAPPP
pIC50: −log10 of the molar value.
measured.parameter: pIC50

- C#CCOC1OC(=O)C(Cl)=C1N(C(C)C)C1CCCCC1 (stereo not drawn): 8.22
- C#CCOC1OC(=O)C(Cl)=C1NCc1ccccc1 (stereo not drawn): 8.05
- CCN(C1=C(Cl)C(=O)OC1CC(=O)c1ccc(Cl)cc1)c1cccc(C)c1 (stereo not drawn): 8.10

====

# subject.of.test: CCKB receptor (guinea pig cerebral cortex) (Cavia porcellus, UniProt H0VZC5)
# Construct: CCKB (nM); other: guinea pig cerebral cortex membranes, 125I-Bolton-Hunter CCK 25 pM; Activity CCK-B [μM]; guinea pig cerebral cortex membranes
# experimental.details: 125I-CCK-8 receptor binding assay, CCKB
# measurement.context: Table 2; guinea pig cerebral cortex membranes; read-out: Activity CCK-B [μM] (IC50)
# thresholds on IC50 define classes: bin 0 (below 1 µM), bin 1 (1 µM to below 10 µM), bin 2 (10 µM or more)

- CC(C)OC1OC(=O)C(Cl)=C1N(Cc1ccccc1)Cc1ccccc1 (stereo not shown): bin 2
- CC1CCC(C(C)C)C(OC2OC(=O)C(Cl)=C2N(C)Cc2ccccc2)C1 (stereo not shown): bin 0
- CCC(C)NC1=C(Cl)C(=O)OC1OC (stereo not shown): bin 1
- C#CCOC1OC(=O)C(Cl)=C1N1CCN(Cc2ccccc2)CC1 (stereo not shown): bin 2
- CC(C)OC1OC(=O)C(Cl)=C1NCc1ccccc1Cl (stereo not shown): bin 0
- CC(C)OC1OC(=O)C(Cl)=C1N(C)Cc1ccccc1 (stereo not shown): bin 2
- COC1OC(=O)C(Cl)=C1n1cnc2ccccc21 (stereo not shown): bin 1
- COC1OC(=O)C(Cl)=C1Nc1c(C)n(C)n(-c2ccccc2)c1=O (stereo not shown): bin 2
- COC1OC(=O)C(Cl)=C1n1ccc(C)n1 (stereo not shown): bin 2
- C#CCOC1OC(=O)C(Cl)=C1N1C(C)CNCC1C (stereo not shown): bin 2

====

# subject.of.test: CCKB receptor (guinea pig cerebral cortex) (Cavia porcellus)
# Construct: CCKB (nM); other: guinea pig cerebral cortex membranes, 125I-Bolton-Hunter CCK 25 pM; Activity CCK-B [μM]; guinea pig cerebral cortex membranes
# Sequence (H0VZC5 1-426): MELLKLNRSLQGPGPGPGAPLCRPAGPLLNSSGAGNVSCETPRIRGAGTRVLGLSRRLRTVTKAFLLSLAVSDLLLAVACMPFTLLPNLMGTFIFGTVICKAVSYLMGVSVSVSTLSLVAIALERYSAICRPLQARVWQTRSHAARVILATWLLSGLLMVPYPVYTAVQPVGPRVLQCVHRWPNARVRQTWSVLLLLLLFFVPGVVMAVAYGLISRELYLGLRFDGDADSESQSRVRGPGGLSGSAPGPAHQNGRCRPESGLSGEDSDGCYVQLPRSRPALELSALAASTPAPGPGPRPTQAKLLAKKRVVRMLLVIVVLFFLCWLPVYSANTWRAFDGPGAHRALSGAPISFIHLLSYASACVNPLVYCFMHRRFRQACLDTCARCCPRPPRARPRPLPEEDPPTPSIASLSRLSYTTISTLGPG
# experimental.details: 125I-CCK-8 receptor binding assay, CCKB
# measurement.context: Table 2; guinea pig cerebral cortex membranes; read-out: Activity CCK-B [μM] (IC50)
For each record, check the reported IC50: if it is below 10 µM write rule met, else write rule not met.

* C=COC1OC(=O)C(Cl)=C1Nc1c(C)n(C)n(-c2ccccc2)c1=O (stereo not drawn) | rule met
* CCCCCCCCCCCCCCCCOC1OC(=O)C(Cl)=C1N1CCN(C(=O)OCC)CC1 (stereo not drawn) | rule not met
* O=C1OC(Cl)C(Nc2ccccc2)=C1Cl (stereo not drawn) | rule not met
* CC(C)OC1OC(=O)C(Cl)=C1NCCc1ccccc1 (stereo not drawn) | rule met
* COC1OC(=O)C(Cl)=C1N1CCc2ccccc21 (stereo not drawn) | rule met
* CC1CCC(C(C)C)C(OC2OC(=O)C(Cl)=C2N2CCCC2)C1 (stereo not drawn) | rule met
* COC1OC(=O)C(Cl)=C1NC1CCC(CCCc2ccccc2)CC1 (stereo not drawn) | rule not met
* COC1OC(=O)C(Cl)=C1Nc1cccc(C)c1 (stereo not drawn) | rule met
* CC(=O)OC1OC(=O)C(Cl)=C1N1CCc2ccccc21 (stereo not drawn) | rule not met
* COC1OC(=O)C(Cl)=C1NCCCN1CCOCC1 (stereo not drawn) | rule not met
* COC1OC(=O)C(Cl)=C1N1CCN(c2ccccc2)CC1 (stereo not drawn) | rule not met
* C#CCOC1OC(=O)C(Cl)=C1N1CC(C)OC(C)C1 (stereo not drawn) | rule not met
